Tested on: Alpha-(1,3)-fucosyltransferase 6 (Homo sapiens)
Experiment: Kinetic parameter of […] by fucosyltransferase 6 alpha 1,3
Observable: Vmax / Km

Molecule: CNC(=O)[C@@H]1O[C@@H](OC)[C@@H](NC(C)=O)[C@@H](O)[C@@H]1O[C@@H]1O[C@@H](CO)[C@H](O)[C@H](O)C1O (stereo partly drawn)
Vmax / Km: 0.4

(a) CO[C@@H]1O[C@@H](CO)[C@@H](O[C@@H]2O[C@@H](CO)[C@H](O)[C@H](O)[C@@H]2OC)[C@H](O)[C@@H]1NC(C)=O
(b) COC(=O)[C@@H]1O[C@@H](OC)[C@@H](NC(C)=O)[C@@H](O)[C@@H]1O[C@@H]1O[C@@H](CO)[C@H](O)[C@H](O)[C@@H]1O
Asked: Higher Vmax / Km: a or b ? Respond using the label that marks the chosen record.
Given back: a
(a: 3.1, b: 1.2)

(A) CO[C@@H]1O[C@@H](CNC=O)[C@@H](O[C@@H]2O[C@@H](CO)[C@H](O)[C@H](O)[C@@H]2OC)[C@H](O)[C@@H]1NC(C)=O
(B) COC[C@@H]1O[C@@H](OC)[C@@H](NC(C)=O)[C@@H](O)[C@@H]1O[C@@H]1O[C@@H](CO)[C@H](O)[C@H](O)[C@@H]1O
(C) CO[C@@H]1O[C@@H](CN)[C@@H](O[C@@H]2O[C@@H](CO)[C@H](O)[C@H](O)[C@@H]2O)[C@H](O)[C@@H]1NC(C)=O
Asked: Order the 3 molecules from highest to lowest Vmax / Km. Note for the reader: the ranking is given by listing the labels in the order requested.
Given back: A, B, C
(A: 9.3, B: 4.5, C: 1.5)

// data source = ChEMBL document CHEMBL1147557
